Several reports have described Ki for Translocator protein (Rattus norvegicus, UniProt P16257); a selection of those results is presented here.

- CCCN(CCC)C(=O)Cc1nc(-c2ccc(Cl)cc2)no1: 3400 nM
- CCCCCCN(CCCCCC)C(=O)C(=O)c1c(-c2ccccc2)[nH]c2ccc(OC)cc12: 35.5 nM
- CCCCCN(CCCCC)C(=O)c1cc(-c2ccccc2)no1: 379 nM
- CCCCCCN(CCCCCC)C(=O)C(=O)c1c(-c2ccccc2)[nH]c2ccc([N+](=O)[O-])cc12: 30.3 nM
- Cc1c(C(=O)N(C)Cc2ccc(I)cc2)nc2ccccc2c1-c1ccccc1: > 1000 nM
- CCN(CC)C(=O)C1Sc2cc(OCCF)ccc2-c2c1c1ccccc1n2C (racemic): 0.35 nM

Here are 8 compounds. What values of Ki were reported for them?
1. CCCCCCN(CCCCCC)C(=O)C(=O)c1c(-c2ccc(Cl)cc2)[nH]c2ccc(Cl)cc12
2. CC(=O)N(Cc1ccccc1OCC[18F])c1cnccc1Oc1ccccc1
3. CCN(Cc1ccc(C)cc1)C(=O)c1nc(-c2ccccc2F)c2ccccc2n1
4. CCCN(CCC)C(=O)C(=O)c1c(-c2ccc([N+](=O)[O-])cc2)[nH]c2ccccc12
5. CCN(CC)C(=O)C1Sc2cccc(OC)c2-c2c1c1ccccc1n2CCF (racemic)
6. CCCCCN(CCCCC)C(=O)Cc1coc(-c2ccc(C)cc2)n1
7. COc1ccc(N(C)C(=O)Cn2c(=O)n3c4c(cc(-c5ccccc5)cc42)CCC3)cc1
8. CC(C)CN(C)C(=O)c1nc(-c2ccccc2)c2ccccc2n1

Given back:
1: 5.8 nM; 2: 0.07 nM; 3: 0.6 nM; 4: 0.95 nM; 5: 1.07 nM; 6: 68 nM; 7: 0.73 nM; 8: 66.5 nM

Here are 6 compounds. What values of Ki were reported for them?
1. CCCN(CCC)C(=O)C(=O)c1c(-c2ccccc2)[nH]c2ccc(N=C=S)cc12
2. O=C(c1nc(-c2ccccc2Cl)c2cc(Cl)ccc2n1)N1CCCCCC1
3. CCC(C)N(C(=O)C(=O)c1c(-c2ccccc2)[nH]c2ccccc12)C(C)CC (stereo not given)
4. CCCCCCN(CCCCCC)C(=O)c1nc(-c2ccccc2)no1
5. CCN(CC)C(=O)C1CCCc2c1c1cc(F)c(OC)cc1n2CCF (racemic)
6. CC[C@H](C)[C@H](NC(=O)C(=O)c1c(-c2ccccc2)[nH]c2ccccc12)C(=O)N[C@H](C(=O)OC)[C@@H](C)CC

Given back:
["37.9 nM", "415 nM", "17 nM", "4190 nM", "3.1 nM", "1000 nM"]

* * *

pKi: −log10 of the molar value.
Several reports have described pKi for Translocator protein (Rattus norvegicus); a selection of those results is presented here.
Returns 1 if the recorded pKi is greater than or equal to 8, and 0 otherwise.

These recorded examples may help you get a feel for the data.
* CN(Cc1ccccc1)C(=O)C(=O)c1c(-c2ccc(F)cc2)[nH]c2ccccc12 | 1
* CCCCNC(=O)C(=O)c1c(-c2ccccc2)[nH]c2ccccc12 | 0
* Cc1cc(C)n2nc(-c3ccc(CCCF)cc3)c(CC(=O)N3CCCC3)c2n1 | 0

Turning now to a further compound:
Asked: Is the recorded value of pKi equal to or greater than 8 for this compound? CCN(CC)C(=O)C1Cc2ccccc2-c2c1c1ccccc1n2CCF (racemic)
Given back: 1

* * *

Several reports have described log10(Ki) for Translocator protein (Rattus norvegicus); a selection of those results is presented here.
log10 Ki, nM

Here are 6 molecules. What values of log10(Ki) were reported for them?
1. CCN(C)C(=O)C(=O)c1c(-c2ccc(Cl)cc2)[nH]c2ccc(Cl)cc12
2. Cc1cc(C)n2nc(-c3ccc(CCCF)cc3)c(CC(=O)NC3CC3)c2n1
3. CCCCCN(CCCCC)C(=O)c1nc(-c2ccccc2)no1
4. CCCCN(CCCC)C(=O)C(=O)c1c(-c2ccc(N)cc2)[nH]c2ccccc12
5. CCCCN(CCCC)C(=O)C(=O)c1c(-c2ccccc2)[nH]c2ccc(F)cc12
6. CCN(Cc1ccccc1)C(=O)c1nc(-c2ccccc2)c2ccccc2n1

Given back:
[0.98, 1.23, 2.96, 2.12, 0.60, 0.05]

* * *

Several reports have described Ki for Translocator protein (Rattus norvegicus, UniProt P16257); a selection of those results is presented here.
Give bare numbers, in µM.

Examples from the recorded data:
* CCCCN(C)C(=O)C(=O)c1c(-c2ccccc2)n(C)c2ccccc12 | 0.19
* CCCCCCN(CCCCCC)C(=O)c1nc(-c2ccccc2)c2cc(Cl)ccc2n1 | 0.0385
* CCCN(CCC)C(=O)Cc1coc(-c2ccc(Cl)cc2)n1 | 0.942

Here are 3 molecules. What values of Ki were reported for them?
1. CCCCN(CCCC)C(=O)c1cc(-c2ccccc2)no1
2. CCCN(CCC)C(=O)Cc1coc(-c2ccc(C)cc2)n1
3. CCN(CC)C(=O)C1(C)Sc2ccccc2-c2c1c1ccccc1n2CCF (single isomer, unassigned; form 1)

Given back:
1. 0.651
2. 2.2
3. 0.0302

* * *

Several reports have described pKi for Translocator protein (Rattus norvegicus); a selection of those results is presented here.
One number for each entry, as −log10 of the molar value.

Examples from the recorded data:
* CN(CCc1ccccc1)C(=O)c1nc2ccccc2c(-c2ccccc2)c1CI | 6.39
* CCN(CC)C(=O)C1CCCc2c1c1ccc(F)cc1n2CCF (racemic) | 8.98
* CCN(CC)C(=O)C1Sc2cc(O)ccc2-c2c1c1ccccc1n2CCF (racemic) | 9.48
* CC(C)N(C)C(=O)C1CCCc2c1c1cc(F)ccc1n2CCF (racemic) | 8.08

Asked: Look up pKi for this compound: CN(C(=O)Cn1c(=O)oc2ccc(-c3ccncc3)cc21)c1ccc(OC(F)(F)F)cc1
Given back: 7.64

* * *

Several reports have described Ki for UniProt:P16257; a selection of those results is presented here.
The label t is reserved for Ki strictly under 3 nM; f covers values equal to or above it.

These recorded examples may help you get a feel for the data.
• CCCCN(CCCC)C(=O)Cc1coc(-c2ccccc2)n1 = f
• CN(C(=O)Cn1c(=O)n2c3c(cc(-c4ccccc4)cc31)CCCC2)c1ccccc1 = t
• CCN(CC)C(=O)C1CCCc2c1c1c(OC)cccc1n2CCF (racemic) = t

Asked: In the record for O=C(c1cc(-c2ccccc2)c2cccc(I)c2n1)N1CCOCC1 , is Ki less than 3 nM?
Given back: f

Asked: In the record for CCCCN(CCCC)C(=O)c1nc(-c2ccccc2)c2ccccc2n1 , is Ki less than 3 nM?
Given back: f

Asked: In the record for CCCCN(CC)C(=O)C(=O)c1c(-c2ccc(Cl)cc2)[nH]c2ccc(Cl)cc12 , is Ki less than 3 nM?
Given back: t

Asked: In the record for CC(C)CN(C)C(=O)c1nc(-c2ccc(Cl)cc2)c2ccccc2n1 , is Ki less than 3 nM?
Given back: f

Asked: In the record for CCOC(=O)c1ccc(CN(CC)C(=O)c2nc(-c3ccccc3)c3ccccc3n2)cc1 , is Ki less than 3 nM?
Given back: f

Asked: In the record for CCCCCN(CCCCC)C(=O)c1coc(-c2ccccc2)n1 , is Ki less than 3 nM?
Given back: f

Asked: In the record for O=C(c1nc(-c2ccc(Cl)cc2)c2ccccc2n1)N1CCCC1 , is Ki less than 3 nM?
Given back: f

* * *

Several reports have described pKi for UniProtKB P16257; a selection of those results is presented here.
Give bare numbers, as −log10 of the molar value.

* CC(C)CN(C)C(=O)c1nc(-c2ccc(Cl)cc2)c2cc(Cl)ccc2n1 | 7.22

Here are 3 molecules. What values of pKi were reported for them?
1. CCN(CC)C(=O)C(=O)c1c(-c2ccccc2)[nH]c2ccccc12
2. Cc1cc(C)n2nc(-c3ccc(CCCF)cc3)c(CC(=O)N(C)Cc3ccccn3)c2n1
3. CCCCN(CCCC)C(=O)C(=O)c1c(-c2ccc(Cl)cc2)[nH]c2ccc(Cl)cc12

Given back:
1. 7.37
2. 8.92
3. 8.72

* * *

Several reports have described Ki for Translocator protein (Rattus norvegicus); a selection of those results is presented here.
Answers are plain numbers, in nM.

Examples from the recorded data:
- CCN(Cc1ccccc1)C(=O)C(=O)c1c(-c2ccc([N+](=O)[O-])cc2)[nH]c2ccccc12: 0.55
- CCCCCCN(CCCCCC)C(=O)C(=O)c1c(-c2ccc(-c3ccccc3)cc2)[nH]c2ccccc12: 1.8
- Cc1cc(C)n2nc(-c3ccc(CCCF)cc3)c(CC(=O)N(C)CCc3ccccc3)c2n1: 1.1

Proceeding to the next compound to report its Ki.
Asked: Look up Ki for this compound: O=C(Cn1c(=O)n2c3c(cc(-c4ccccc4)cc31)CCC2)Nc1ccccc1
Given back: 33
